Taken from patent US20240279318A1.

System Name: T1, AFP158/HLA-A*02:01 complex (human)
T1 construct: biotinylated on the BSP by BirA for ELISA and panning; also called biotinylated AFP158/HLA-A*02:01 complex; Bio-AFP158
Experimental Details: SPR; vs AS170036 VL1VH1;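 further: crude scFv captured on sensor chip, peptide–HLA complex flowed over at several concentrations, KD estimated from association and dissociation kinetic rates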
Reported values of Affinity increase for individual entries
Property Label: Affinity increase (fold)

Binder: AS170036 VL1VH1 HP58Y (scFv) scFv: QSALTQPRSVSGSPGQSVTISCAGTSSDVGSENYVSWYQQHPGKAPKLMIYQVNKRASGVPDRFSGSKSGNTASLTISGLQAEDEADYYCASYRSSDHNIVFGGGTKLTVLGGGGSGGGGSGGGGSEVQLVESGGGLVQPGGSLRLSCAASGFTFSSYAMSWVRQAPGKGLEWVSTINSGTGSYYYADSVKGRFTISRDNSKNTLYLQMNSLRAEDTAVYYCAKNFFDGSWFLGPPAMDYWGQGTLVTVSSHHHHHH
Number: 0.1
--
Binder: AS170036 VL1VH1 HP110T (scFv) scFv: QSALTQPRSVSGSPGQSVTISCAGTSSDVGSENYVSWYQQHPGKAPKLMIYQVNKRASGVPDRFSGSKSGNTASLTISGLQAEDEADYYCASYRSSDHNIVFGGGTKLTVLGGGGSGGGGSGGGGSEVQLVESGGGLVQPGGSLRLSCAASGFTFSSYAMSWVRQAPGKGLEWVSTINSGTGSPYYADSVKGRFTISRDNSKNTLYLQMNSLRAEDTAVYYCAKNFFDGSWFLGPTAMDYWGQGTLVTVSSHHHHHH
Number: 1.3
--
Binder: AS170036 VL1VH1 HS57Y (scFv) scFv: QSALTQPRSVSGSPGQSVTISCAGTSSDVGSENYVSWYQQHPGKAPKLMIYQVNKRASGVPDRFSGSKSGNTASLTISGLQAEDEADYYCASYRSSDHNIVFGGGTKLTVLGGGGSGGGGSGGGGSEVQLVESGGGLVQPGGSLRLSCAASGFTFSSYAMSWVRQAPGKGLEWVSTINSGTGYPYYADSVKGRFTISRDNSKNTLYLQMNSLRAEDTAVYYCAKNFFDGSWFLGPPAMDYWGQGTLVTVSSHHHHHH
Number: 1.2
--
Binder: AS170036 VL1VH1-VHS57R (scFv) scFv: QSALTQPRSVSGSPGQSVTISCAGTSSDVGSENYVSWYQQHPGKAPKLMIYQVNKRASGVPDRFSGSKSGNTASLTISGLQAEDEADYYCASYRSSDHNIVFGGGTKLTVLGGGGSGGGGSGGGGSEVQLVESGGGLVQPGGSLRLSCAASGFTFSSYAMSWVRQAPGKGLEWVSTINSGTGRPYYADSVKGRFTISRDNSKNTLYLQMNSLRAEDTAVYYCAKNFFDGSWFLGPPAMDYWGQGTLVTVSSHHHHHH
Number: 2.8
--
Binder: AS170036 VL1VH1 HP109T (scFv) scFv: QSALTQPRSVSGSPGQSVTISCAGTSSDVGSENYVSWYQQHPGKAPKLMIYQVNKRASGVPDRFSGSKSGNTASLTISGLQAEDEADYYCASYRSSDHNIVFGGGTKLTVLGGGGSGGGGSGGGGSEVQLVESGGGLVQPGGSLRLSCAASGFTFSSYAMSWVRQAPGKGLEWVSTINSGTGSPYYADSVKGRFTISRDNSKNTLYLQMNSLRAEDTAVYYCAKNFFDGSWFLGTPAMDYWGQGTLVTVSSHHHHHH
Number: 0.1
--
Binder: AS170036 VL1VH1 HG56T (scFv) scFv: QSALTQPRSVSGSPGQSVTISCAGTSSDVGSENYVSWYQQHPGKAPKLMIYQVNKRASGVPDRFSGSKSGNTASLTISGLQAEDEADYYCASYRSSDHNIVFGGGTKLTVLGGGGSGGGGSGGGGSEVQLVESGGGLVQPGGSLRLSCAASGFTFSSYAMSWVRQAPGKGLEWVSTINSGTTSPYYADSVKGRFTISRDNSKNTLYLQMNSLRAEDTAVYYCAKNFFDGSWFLGPPAMDYWGQGTLVTVSSHHHHHH
Number: 0.7
--
Binder: AS170036 VL1VH1 HS57T (scFv) scFv: QSALTQPRSVSGSPGQSVTISCAGTSSDVGSENYVSWYQQHPGKAPKLMIYQVNKRASGVPDRFSGSKSGNTASLTISGLQAEDEADYYCASYRSSDHNIVFGGGTKLTVLGGGGSGGGGSGGGGSEVQLVESGGGLVQPGGSLRLSCAASGFTFSSYAMSWVRQAPGKGLEWVSTINSGTGTPYYADSVKGRFTISRDNSKNTLYLQMNSLRAEDTAVYYCAKNFFDGSWFLGPPAMDYWGQGTLVTVSSHHHHHH
Number: 1.1
--
Binder: AS170036 VL1VH1 HS57W (scFv) scFv: QSALTQPRSVSGSPGQSVTISCAGTSSDVGSENYVSWYQQHPGKAPKLMIYQVNKRASGVPDRFSGSKSGNTASLTISGLQAEDEADYYCASYRSSDHNIVFGGGTKLTVLGGGGSGGGGSGGGGSEVQLVESGGGLVQPGGSLRLSCAASGFTFSSYAMSWVRQAPGKGLEWVSTINSGTGWPYYADSVKGRFTISRDNSKNTLYLQMNSLRAEDTAVYYCAKNFFDGSWFLGPPAMDYWGQGTLVTVSSHHHHHH
Number: 0.6
--
Binder: AS170036 VL1VH1 HP109A (scFv) scFv: QSALTQPRSVSGSPGQSVTISCAGTSSDVGSENYVSWYQQHPGKAPKLMIYQVNKRASGVPDRFSGSKSGNTASLTISGLQAEDEADYYCASYRSSDHNIVFGGGTKLTVLGGGGSGGGGSGGGGSEVQLVESGGGLVQPGGSLRLSCAASGFTFSSYAMSWVRQAPGKGLEWVSTINSGTGSPYYADSVKGRFTISRDNSKNTLYLQMNSLRAEDTAVYYCAKNFFDGSWFLGAPAMDYWGQGTLVTVSSHHHHHH
Number: 0.1
